# Test system: Staphylococcus aureus
# ASSAY REMARKS: Antimicrobial activity against Staphylococcus aureus Smith infected in iv dosed septicaemia Swiss albino mouse model after 4 days
# Format: functional
# TEST CONTEXT: 96 h
The following compounds are shown together with reported log10(ED50) values.
PARAMETER: log10(ED50) (log10 of the value in mg/kg)

| COMPOUND | log10(ED50) |
| --- | --- |
| COc1cc(O)c2c(c1C)C(=O)O[C@H](CO)CCC/C(S)=N/[C@H](c1nc(C)no1)CSC2 | 1.10 |
| COc1cc(O)c2c(c1Cl)C(=O)OCCCCC(=S)N[C@H](c1nc(CN)no1)CSC2.Cl | 0.78 |
| COc1cc(O)c2c(c1Br)C(=O)OCCCCC(=S)N[C@H](c1nc(CN)no1)CSC2.Cl | 1.10 |
| COc1cc(O)c2c(c1Br)C(=O)OCCNCC(=O)N[C@H](c1nc(C)no1)CSC2.Cl | 1.40 |
| CN[C@H](CC(C)C)C(=O)N[C@H]1C(=O)N[C@@H](CC(N)=O)C(=O)N[C@H]2C(=O)N[C@H]3C(=O)N[C@H](C(=O)N[C@H](C(=O)O)c4cc(O)cc(O)c4-c4cc3ccc4O)[C@H](O)c3ccc(c(Cl)c3)Oc3cc2cc(c3O[C@@H]2O[C@H](CO)[C@@H](O)[C@H](O)[C@H]2O[C@H]2C[C@](C)(N)[C@H](O)[C@H](C)O2)Oc2ccc(cc2Cl)[C@H]1O [VANCOMYCIN] | 0.18 |
| COc1cc(O)c2c(c1Br)C(=O)OCC(=O)NCC(=O)N[C@H](c1nc(C3CC3)no1)CSC2 | 0.78 |
| COc1cc(O)c2c(c1Br)C(=O)OCC(=O)NCC(=S)N[C@H](c1nc(C)no1)CSC2 | 1.10 |
| COc1cc(O)c2c(c1Cl)C(=O)OCC(=O)NCC(=O)N[C@H](c1nc(C)no1)CSC2 | 1.40 |
| COc1cc(O)c2c(c1Br)C(=O)OCC(=O)NCC(=O)N[C@H](c1nc(C)no1)CSC2 | 0.48 |

----------
# System: Staphylococcus aureus
# ASSAY REMARKS: Antimicrobial activity against Staphylococcus aureus Smith infected in iv dosed septicaemia Swiss albino mouse model after 4 days
# Assay type: functional
# TEST CONTEXT: 96 h
The following molecules are shown together with reported ED50 values.

| MOLECULAR STRING | INEQUALITY OPERATOR | ED50 (mg/kg) |
| --- | --- | --- |
| COc1cc(O)c2c(c1C)C(=O)OCC(=O)NCC(=S)N[C@H](c1nc(C)no1)CSC2 | = | 25 |
| COc1cc(O)c2c(c1C)C(=O)OCCCCC(=S)N[C@H](c1nc(CN)no1)CSC2.Cl | = | 8.5 |
| COc1cc(O)c2c(c1C)C(=O)OCC(=O)NCC(=O)N[C@H](c1nc(C)no1)CSC2 | > | 25 |
| COc1cc(O)c2c(c1Br)C(=O)OCC(=O)N(C)CC(=O)N[C@H](c1nc(C)no1)CSC2 | > | 12.5 |
| CO[C@@H]1[C@@H](OC(N)=O)[C@@H](O)[C@H](Oc2ccc3c(O)c(NC(=O)c4ccc(O)c(CC=C(C)C)c4)c(=O)oc3c2C)OC1(C)C | = | 3 |
| COc1cc(O)c2c(c1C)C(=O)OCCCCC(=O)N[C@H](c1nc(C)no1)CSC2 | > | 25 |
| COc1cc(O)c2c(c1C)C(=O)OCCCCC(=S)N[C@H](c1nc(CO)no1)CSC2 | = | 25 |
| COc1cc(O)c2c(c1Br)C(=O)OCC(=O)NCC(=S)N[C@H](c1nc(CNC(C)C)no1)CSC2.Cl | = | 12 |
| COc1cc(O)c2c(c1C)C(=O)OC[C@H](CO)CCC(=S)N[C@H](c1nc(C)no1)CSC2 | = | 12.5 |
| COc1cc(O)c2c(c1Br)C(=O)O[C@H](c1ccccc1)C(=O)NCC(=S)N[C@H](c1nc(C)no1)CSC2 | > | 25 |
| COc1cc(O)c2c(c1C)C(=O)OCCCCC(=S)N[C@H](c1nc(C)no1)CSC2 | > | 25 |
| COc1cc(O)c2c(c1Br)C(=O)O[C@H](C)C(=O)NCC(=O)N[C@H](c1nc(C)no1)CSC2 | > | 12.5 |
| COc1cc(O)c2c(c1Br)C(=O)OCCN(C(=O)C(C)(C)C)CC(=O)N[C@H](c1nc(C)no1)CSC2 | > | 12 |
| COc1cc(O)c2c(c1Cl)C(=O)OCCCCC(=O)N[C@H](c1nc(C)no1)CSC2 | > | 25 |
| COc1cc(O)c2c(c1Br)C(=O)OCCCCC(=O)N[C@H](c1nc(C)no1)CSC2 | = | 25 |
| COc1cc(O)c2c(c1Br)C(=O)OCC(=O)NCC(=S)N[C@H](c1nc(CN)no1)CSC2.Cl | > | 12 |

----------
# Tested on: Escherichia coli
# ASSAY REMARKS: Inhibition of Escherichia coli DNA gyrase A2B2 complex after 30 mins by supercoiling assay
The following molecules are shown together with reported log10 MNEC values.
PARAMETER: log10 MNEC (log10 of the value in µg/mL)

| MOLECULAR STRING | SYSTEM | log10 MNEC |
| --- | --- | --- |
| COCc1noc([C@@H]2CSCc3c(O)cc(OC)c(Br)c3C(=O)OCC(=O)NCC(=O)N2)n1 | Escherichia coli | -1.30 |
| COc1cc(O)c2c(c1Br)C(=O)O[C@H](c1ccccc1)C(=O)NCC(=S)N[C@H](c1nc(C)no1)CSC2 | Escherichia coli | 0.00 |
| COc1cc(O)c2c(c1Br)C(=O)OCCNCC(=S)N[C@H](c1nc(C)no1)CSC2.Cl | Escherichia coli | -1.00 |
| COc1cc(O)c2c(c1Br)C(=O)OCC(=O)N(C)CC(=S)N[C@H](c1nc(C)no1)CSC2 | Escherichia coli | -1.30 |
| COc1cc(O)c2c(c1Br)C(=O)OCCCCC(=S)N[C@H](c1nc(CN)no1)CSC2.Cl | Escherichia coli | -1.30 |
| COc1cc(O)c2c(c1C)C(=O)OCCCCC(=S)N[C@H](c1nc(CO)no1)CSC2 | Escherichia coli | -3.00 |
| COc1cc(O)c2c(c1Br)C(=O)OCC(=O)NCC(=O)N[C@H](c1nc(CN)no1)CSC2.Cl | Escherichia coli | -1.00 |
| COc1cc(O)c2c(c1Cl)C(=O)OCCCCC(=S)N[C@H](c1nc(CN)no1)CSC2.Cl | Escherichia coli | -2.70 |
| COc1cc(O)c2c(c1Br)C(=O)OCCN(C)CC(=O)N[C@H](c1nc(C)no1)CSC2.Cl | Escherichia coli | -1.30 |
| COc1cc(O)c2c(c1Br)C(=O)OCCN(C(=O)C1CC1)CC(=O)N[C@H](c1nc(C)no1)CSC2 | Escherichia coli | -1.00 |
| COc1cc(O)c2c(c1Br)C(=O)OCC(=S)NCC(=S)N[C@H](c1nc(C)no1)CSC2 | Escherichia coli | -0.70 |
| COc1cc(O)c2c(c1Br)C(=O)O[C@H](C)C(=O)NCC(=S)N[C@H](c1nc(C)no1)CSC2 | Escherichia coli | -0.70 |
| COc1cc(O)c2c(c1Br)C(=O)OCCN(C(C)=O)CC(=O)N[C@H](c1nc(C)no1)CSC2 | Escherichia coli | -2.00 |
| COc1cc(O)c2c(c1C)C(=O)OCCCCC(=O)N[C@H](c1nc(C)no1)CSC2 | Escherichia coli | -2.00 |
| COc1cc(O)c2c(c1C)C(=O)OCCCCC(=S)N[C@H](c1nc(CN)no1)CSC2.Cl | Escherichia coli | -2.70 |
| COc1cc(O)c2c(c1C)C(=O)OC[C@H](CO)CCC(=S)N[C@H](c1nc(C)no1)CSC2 | Escherichia coli | -2.70 |
| COc1cc(O)c2c(c1Br)C(=O)OCC(=O)NCC(=S)N[C@H](c1nc(CN)no1)CSC2.Cl | Escherichia coli | -1.30 |
| COc1cc(O)c2c(c1C)C(=O)O[C@H](CO)CCC/C(S)=N/[C@H](c1nc(C)no1)CSC2 | Escherichia coli | -2.30 |

----------
The following compounds are shown together with reported MIC values.
# System: Streptococcus pyogenes
# ASSAY REMARKS: Antimicrobial activity against Streptococcus pyogenes b15 after 18 hrs by agar dilution method
# Type: functional
# TEST CONTEXT: b15, 18 h
PARAMETER: MIC (mg/L)

| COMPOUND | PARAMETER | OUTPUT UNIT | RESULT |
| --- | --- | --- | --- |
| COc1cc(O)c2c(c1Cl)C(=O)OCCCCC(=S)N[C@H](c1nc(CN)no1)CSC2.Cl | MIC | mg/L | 0.25 |
| COc1cc(O)c2c(c1Br)C(=O)OCCCCC(=S)N[C@H](c1nc(C)no1)CSC2 | MIC | mg/L | 0.12 |
| CN[C@H](CC(C)C)C(=O)N[C@H]1C(=O)N[C@@H](CC(N)=O)C(=O)N[C@H]2C(=O)N[C@H]3C(=O)N[C@H](C(=O)N[C@H](C(=O)O)c4cc(O)cc(O)c4-c4cc3ccc4O)[C@H](O)c3ccc(c(Cl)c3)Oc3cc2cc(c3O[C@@H]2O[C@H](CO)[C@@H](O)[C@H](O)[C@H]2O[C@H]2C[C@](C)(N)[C@H](O)[C@H](C)O2)Oc2ccc(cc2Cl)[C@H]1O [VANCOMYCIN] | MIC | mg/L | 1 |
| COc1cc(O)c2c(c1C)C(=O)OCC(=O)NCC(=O)N[C@H](c1nc(C)no1)CSC2 | MIC | mg/L | 2 |
